Assay: Ratio of unbound drug level in brain to plasma in Sprague-Dawley rat at 2 mg/kg, sc by LC-MS/MS analysis
Type: ADME, organism-based
Parameters: dose 2 mg/kg, route subcutaneous
measurement_type: Kp uu
Just the number.

[in] Given Clc1ccc2c(c1)N=C(N1CCNCC1)c1ccccc1N2 , state its recorded Kp uu.
[out] 0.06

====

Test: Ratio of drug level in brain to plasma in Sprague-Dawley rat at 10 mg/kg, sc by LC-MS/MS analysis
Format: ADME, organism-based
Design: dose 10 mg/kg, route subcutaneous
Details: read-out: BPR
measurement_type: Kp

[in] Given CN(C)CCCC1(c2ccc(F)cc2)OCc2cc(C#N)ccc21 (racemic) , state its recorded Kp.
[out] 13.4
